Tested on: SARS-CoV-2 B.1.1.7 lineage
Experiment: microbe, parasite or virus in culture
Type: cell-based
Details: Severe acute respiratory syndrome coronavirus 2; Table C; SARS-CoV-2 B.1.1.7 in A549-dual_ACE2_TMPRSS2 cells, class symbols; read-out: A549-dual_ACE2_TMPRSS2 (EC50)
VALUE KIND: EC50

Request: Specify reported EC50 for the compound shown: `CC(C)C[C@@H](C(=O)N1C[C@@]2(C[C@H]1C#N)Oc1cc(F)cc(F)c1NC2=O)N(C)C(=O)[C@H](CC1CC1)NC(=O)C(F)(F)F`
Response: 100 to 1000 nM

Request: Specify reported EC50 for the compound shown: `Cc1cnc2c(c1)NC(=O)[C@]1(C[C@@H](C#N)N(C(=O)[C@H](CC3CC3)N(C)C(=O)[C@H](CC3CC3)NC(=O)C(F)(F)F)C1)O2`
Response: 100 to 1000 nM

Request: Specify reported EC50 for the compound shown: `C[C@H](NC(=O)C1(C)CCC1)C(=O)N(C)[C@@H](CC1CC1)C(=O)N1C[C@@]2(C[C@H]1C#N)Oc1cccnc1NC2=O`
Response: 100 to 1000 nM

Request: Specify reported EC50 for the compound shown: `CN(C(=O)[C@H](CC1CC1)NC(=O)C(F)(F)F)[C@@H](CC1CC1)C(=O)N1C[C@@]2(C[C@H]1C#N)Oc1c(F)cccc1CNC2=O`
Response: < 100 nM

Request: Specify reported EC50 for the compound shown: `CN(C(=O)[C@H](CC1CC1)NC(=O)C(F)(F)F)[C@@H](CC1CC1)C(=O)N1C[C@@]2(C[C@H]1C#N)Oc1cc(C#N)cc(F)c1NC2=O`
Response: 100 to 1000 nM

Request: Specify reported EC50 for the compound shown: `CN(C(=O)[C@@H](Cc1cccnc1)NC(=O)C(F)(F)F)[C@@H](CC1CC1)C(=O)N1C[C@@]2(C[C@H]1C#N)Oc1cccnc1NC2=O`
Response: 100 to 1000 nM

These data points were gathered from patent US20240199647A1.
